Hey, just so you know, these numbers are from patent US20170342144A1.

Could you please report measured kd var/kd wt for the items listed next?
# Target Under Test: T1, human TGFβ3 (human, UniProt P10600 301-412)
# T1 sequence: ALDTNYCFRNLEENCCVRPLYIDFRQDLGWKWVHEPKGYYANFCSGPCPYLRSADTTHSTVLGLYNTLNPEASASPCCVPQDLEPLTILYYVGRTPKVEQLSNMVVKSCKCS
# Procedure Details: Biacore off-rate vs wt GC1008, 50 nM
Give bare numbers.

S30L (antibody, V domains shown, GC1008 IgG4 variant) VH: QVQLVQSGAEVKKPGSSVKVSCKASGYTFLSNVISWVRQAPGQGLEWMGGVIPIVDIANYAQRFKGRVTITADESTSTTYMELSSLRSEDTAVYYCASTLGLVLDAMDYWGQGTLVTVSS VL: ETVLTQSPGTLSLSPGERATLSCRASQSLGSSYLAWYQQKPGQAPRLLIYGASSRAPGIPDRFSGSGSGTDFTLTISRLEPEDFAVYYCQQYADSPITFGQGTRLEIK = 1
S31A (antibody, V domains shown, GC1008 IgG4 variant) VH: QVQLVQSGAEVKKPGSSVKVSCKASGYTFSANVISWVRQAPGQGLEWMGGVIPIVDIANYAQRFKGRVTITADESTSTTYMELSSLRSEDTAVYYCASTLGLVLDAMDYWGQGTLVTVSS VL: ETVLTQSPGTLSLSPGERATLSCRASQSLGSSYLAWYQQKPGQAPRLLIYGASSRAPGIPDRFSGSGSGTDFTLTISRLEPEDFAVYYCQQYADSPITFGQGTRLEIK = 1.1

Next item in the queue.
(Q) For the binder S30R (antibody, V domains shown, GC1008 IgG4 variant) VH: QVQLVQSGAEVKKPGSSVKVSCKASGYTFRSNVISWVRQAPGQGLEWMGGVIPIVDIANYAQRFKGRVTITADESTSTTYMELSSLRSEDTAVYYCASTLGLVLDAMDYWGQGTLVTVSS VL: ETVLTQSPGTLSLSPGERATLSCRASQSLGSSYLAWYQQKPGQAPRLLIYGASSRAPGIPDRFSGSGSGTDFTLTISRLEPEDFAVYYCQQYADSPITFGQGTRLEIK , what kd var/kd wt is on record?
(A) 1.3
